# testedSystem: human PCSK9 / human LDLR EGFa domain (Homo sapiens, UniProt Q8NBP7)
# Sequence (Q8NBP7 153-692): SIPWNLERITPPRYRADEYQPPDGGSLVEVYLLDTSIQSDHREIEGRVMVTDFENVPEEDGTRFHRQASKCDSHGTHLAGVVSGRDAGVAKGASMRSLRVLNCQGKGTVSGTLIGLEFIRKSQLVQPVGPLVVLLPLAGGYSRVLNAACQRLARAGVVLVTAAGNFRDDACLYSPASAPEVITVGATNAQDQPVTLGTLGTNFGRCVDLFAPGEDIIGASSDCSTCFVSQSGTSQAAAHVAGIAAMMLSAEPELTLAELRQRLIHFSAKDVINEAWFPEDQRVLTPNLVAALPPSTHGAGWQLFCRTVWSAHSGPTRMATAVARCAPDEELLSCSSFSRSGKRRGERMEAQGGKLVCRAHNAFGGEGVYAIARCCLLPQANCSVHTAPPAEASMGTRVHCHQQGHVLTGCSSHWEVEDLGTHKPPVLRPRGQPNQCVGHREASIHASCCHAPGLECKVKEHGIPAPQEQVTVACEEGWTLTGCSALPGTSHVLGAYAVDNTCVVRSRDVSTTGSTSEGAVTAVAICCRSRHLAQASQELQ
# assayInfo: TR-FRET assay of inhibition of the PCSK9-LDLR protein-protein interaction
# recordedConditions: 20 nM human PCSK9, 20 nM human LDLR EGFa domain, 2 hours room temperature
pIC50: −log10 of the molar value. Numbered stars: 1 amine (or outer) side, 2 acyl side, 3 side chain; on linkers, the order of the positions; unused ones are H or OH. Bridge positions count the residues as written; N and C are the ends. Square brackets hold non-standard residues; d marks the D form. Peptide text beside a SMILES is read from it. Trp(5-F) = N[C@@H](Cc1c[nH]c2ccc(F)cc12)C(=O)O; X1 = O=C(CCSCc1cccc(CSCCN[*:1])c1)[*:2]; 1Nal = N[C@@H](Cc1cccc2ccccc12)C(=O)O; mXylylene = c1cc(C[*:1])cc(C[*:2])c1; Cha = N[C@@H](CC1CCCCC1)C(=O)O; Mpa = O=C(O)CCS

{"columns": ["compound", "pIC50"],
 "data": [
  ["C[C@@H]1NC(=O)[C@@H]2CCCN2C(=O)[C@H](CC2CCCCC2)NC(=O)[C@H](Cc2c[nH]c3ccc(F)cc23)NC(=O)CNC(=O)[C@H](CCCCN)NC(=O)CCSCc2cccc(c2)CSC[C@@H](C(N)=O)NC(=O)[C@@H]2CCCN2C(=O)[C@H](Cc2ccc(O)cc2)NC1=O [Compound 025] ([Mpa]KG[Trp(5-F)][Cha]PAYPC-NH2; linker 1-10 via mXylylene)", "7.00 to 9.00"],
  ["C[C@@H]1NC(=O)CCSCc2cccc(c2)CSCCNC(=O)[C@@H]2CCCN2C(=O)[C@H](Cc2cccc3ccccc23)NC(=O)[C@H](C)NC(=O)[C@@H]2CCCN2C(=O)[C@H](Cc2c[nH]c3ccc(F)cc23)NC(=O)[C@H](Cc2cccc3ccccc23)NC(=O)[C@@H](C)NC1=O [Compound 080] (cyclo([1Nal]P[X1]A[dA][1Nal][Trp(5-F)]PA))", "4.92 to 6.00"],
  ["C[C@@H]1NC(=O)CCSCc2cccc(c2)CSCCNC(=O)[C@@H]2CCCN2C(=O)[C@H](Cc2cccc3ccccc23)NC(=O)[C@H](C)NC(=O)[C@@H]2CCCN2C(=O)[C@H](Cc2c[nH]c3ccc(F)cc23)NC(=O)[C@H](Cc2c[nH]c3ccc(F)cc23)NC(=O)[C@@H](C)NC1=O [Compound 065] (cyclo([1Nal]P[X1]A[dA][Trp(5-F)][Trp(5-F)]PA))", "4.30 to 4.68"]
]}

###

# testedSystem: PCSK9 (Homo sapiens)
# Construct: biotin (biotinylated)
# assayInfo: PCSK9 Alexa FRET Plus assay (displacement of AlexaFluor647 tagged cyclic peptide Reagent B)
# Format: binding
# recordedConditions: 0.5 nM PCSK9, 960 nM AF cyclic peptide Reagent B
Numbered stars: 1 amine (or outer) side, 2 acyl side, 3 side chain; on linkers, the order of the positions; unused ones are H or OH. Bridge positions count the residues as written; N and C are the ends. Square brackets hold non-standard residues; d marks the D form. Peptide text beside a SMILES is read from it. Phe(4-tBu) = CC(C)(C)c1ccc(C[C@H](N)C(=O)O)cc1; Trp(5-F) = N[C@@H](Cc1c[nH]c2ccc(F)cc12)C(=O)O; X1 = O=C(CCSCc1cccc(CSCCN[*:1])c1)[*:2]; 2Nal = N[C@@H](Cc1ccc2ccccc2c1)C(=O)O; mXylylene = c1cc(C[*:1])cc(C[*:2])c1; hCha = N[C@@H](CCC1CCCCC1)C(=O)O; Cha = N[C@@H](CC1CCCCC1)C(=O)O; Pip = O=C(O)[C@@H]1CCCCN1; Mpa = O=C(O)CCS
recordedEndpoint: IC50

{"columns": ["molecule", "dataValue"],
 "data": [
  ["C[C@@H]1NC(=O)CCSCc2cccc(c2)CSCCNC(=O)[C@@H]2CCCN2C(=O)[C@H](Cc2ccccc2)NC(=O)[C@H](C)NC(=O)[C@@H]2CCCN2C(=O)[C@H](Cc2c[nH]c3ccc(F)cc23)NC(=O)[C@H](Cc2c[nH]c3ccc(F)cc23)NC(=O)[C@@H](C)NC1=O [Compound 062] (cyclo(AFP[X1]A[dA][Trp(5-F)][Trp(5-F)]P))", "1 to 100 nM"],
  ["COc1ccc(C[C@@H]2NC(=O)[C@H]([C@@H](C)OC)NC(=O)[C@H]3CCCN3C(=O)[C@H]3Cc4cn(c5ccc(F)cc45)Cc4cn(nn4)-c4cc(cc(c4)CSCCC(=O)N[C@@H](C)C(=O)N[C@H](C)C(=O)N[C@@H](Cc4c[nH]c5ccc(F)cc45)C(=O)N3)CSCCNC(=O)[C@]3(C)CCCN3C2=O)cc1", "1 to 100 nM"],
  ["C[C@@H]1NC(=O)[C@@H]2CCCN2C(=O)[C@H](Cc2ccc(C(C)(C)C)cc2)NC(=O)[C@H](Cc2c[nH]c3ccc(F)cc23)NC(=O)CNC(=O)[C@H](CCCCN)NC(=O)CCSCc2cccc(c2)CSC[C@@H](C(N)=O)NC(=O)[C@@H]2CCCN2C(=O)[C@H](Cc2ccc(O)cc2)NC1=O [Compound 016] ([Mpa]KG[Trp(5-F)][Phe(4-tBu)]PAYPC-NH2; linker 1-10 via mXylylene)", "1 to 100 nM"],
  ["C[C@@H]1NC(=O)[C@@H]2CCCN2C(=O)[C@H](CCC2CCCCC2)NC(=O)[C@H](Cc2c[nH]c3ccc(F)cc23)NC(=O)CNC(=O)[C@H](CCCCN)NC(=O)CCSCc2cccc(c2)CSC[C@@H](C(N)=O)NC(=O)[C@@H]2CCCN2C(=O)[C@H](Cc2ccc(O)cc2)NC1=O [Compound 026] ([Mpa]KG[Trp(5-F)][hCha]PAYPC-NH2; linker 1-10 via mXylylene)", "100 to 500 nM"],
  ["C[C@@H]1NC(=O)[C@@H]2CCCN2C(=O)[C@H](CC2CCCCC2)NC(=O)[C@H](Cc2c[nH]c3ccc(F)cc23)NC(=O)CNC(=O)[C@H](CCCCN)NC(=O)CCSCc2cccc(c2)CSC[C@@H](C(N)=O)NC(=O)[C@@H]2CCCN2C(=O)[C@H](Cc2ccc(O)cc2)NC1=O [Compound 025] ([Mpa]KG[Trp(5-F)][Cha]PAYPC-NH2; linker 1-10 via mXylylene)", "1 to 100 nM"],
  ["COc1ccc(C[C@@H]2NC(=O)[C@H]([C@@H](C)O)NC(=O)[C@H]3C[C@@H](F)CN3C(=O)[C@H]3Cc4cn(c5ccc(F)cc45)Cc4cn(nn4)-c4cc(cc(c4)CSCCC(=O)N[C@@H](C)C(=O)N[C@H](C)C(=O)N[C@@H](Cc4c[nH]c5ccc(F)cc45)C(=O)N3)CSCCNC(=O)[C@]3(C)CCCN3C2=O)cc1", "100 to 500 nM"],
  ["C[C@@H]1NC(=O)CCSCc2cccc(c2)CSCCNC(=O)[C@@H]2CCCN2C(=O)[C@H](Cc2ccc3ccccc3c2)NC(=O)[C@H](C)NC(=O)[C@@H]2CCCCN2C(=O)[C@H](Cc2c[nH]c3ccc(F)cc23)NC(=O)[C@H](Cc2c[nH]c3ccc(F)cc23)NC(=O)[C@@H](C)NC1=O [Compound 089] (cyclo([2Nal]P[X1]A[dA][Trp(5-F)][Trp(5-F)][Pip]A))", "1 to 100 nM"]
]}

###

# testedSystem: PCSK9 (Homo sapiens, UniProt Q8NBP7)
# Construct: biotin (biotinylated)
# assayInfo: PCSK9 Alexa FRET Standard assay (displacement of AlexaFluor647 tagged cyclic peptide Reagent A)
# Format: binding
# recordedConditions: 0.5 nM PCSK9, 20 nM AF cyclic peptide Reagent A
# Method: A solution containing 1 nM biotinylated PCSK9+2.5 nM Lance Streptavidin Europium (Strep-Eu) was made in 50 mM HEPES pH 7.4, 0.15 M NaCl, 5 mM CaCl2), 0.01% BSA, and 0.01% Surfactant P20. […] The reaction was incubated at room temperature for at least two hours prior to fluorescence measurements using an Envision Multilabel Reader. IC50 values were determined by fitting data to a sigmoidal dose-response curve using nonlinear regression. […]
Numbered stars: 1 amine (or outer) side, 2 acyl side, 3 side chain; on linkers, the order of the positions; unused ones are H or OH. Bridge positions count the residues as written; N and C are the ends. Square brackets hold non-standard residues; d marks the D form. Peptide text beside a SMILES is read from it. Trp(5-F) = N[C@@H](Cc1c[nH]c2ccc(F)cc12)C(=O)O; mXylylene = c1cc(C[*:1])cc(C[*:2])c1; aThr = C[C@H](O)[C@H](N)C(=O)O; αMeP = C[C@@]1(C(=O)O)CCCN1; Mpa = O=C(O)CCS

{"columns": ["molecule", "IC50"],
 "data": [
  ["COc1ccc(C[C@@H]2NC(=O)[C@H](C)NC(=O)[C@@H]3CCCN3C(=O)[C@H](NC(=O)[C@H](Cc3c[nH]c4ccc(F)cc34)NC(C)=O)Cc3cn(c4ccc(F)cc34)Cc3cn(nn3)-c3cccc(c3)CSCCNC(=O)[C@]3(C)CCCN3C2=O)cc1", "1 to 100 nM"],
  ["C[C@H](O)[C@@H]1NC(=O)CNC(=O)[C@H](CCCCN)NC(=O)CCSCc2cccc(c2)CSC[C@@H](C(N)=O)NC(=O)[C@]2(C)CCCN2C(=O)[C@H](Cc2ccc(O)cc2)NC(=O)[C@H](Cc2cnc[nH]2)NC(=O)[C@H](CC(=O)O)NC(=O)[C@H](Cc2c[nH]c3ccc(F)cc23)NC1=O [Compound 114] ([Mpa]KG[aThr][Trp(5-F)]DHY[αMeP]C-NH2; linker 1-10 via mXylylene)", "100 to 1000 nM"]
]}
